# System: Escherichia coli TOP10
# METHOD NOTES: shrunken log2 fold change of peptide-encoding DNA abundance (4.5 h post-induction vs induction); higher = less antimicrobial activity (less host growth inhibition)
# CONDITION SUMMARY: time post-induction: 4.5 h; library: site-saturation at positions 5, 18, 19, 20
Classification scheme (shrunken log2 fold change): label 0 = under -0.1, label 1 = from -0.1 up to 0.09, label 2 = 0.09 and over

For this sequence, which bin applies? "RRIRARPPRLPRPRPRPSPYPRP" label 0

***
For this sequence, which bin applies? "RRIRIRPPRLPRPRPRPEILPRP" label 1

Next: "RRIRERPPRLPRPRPRPGWSPRP" label 2

Next: "RRIRWRPPRLPRPRPRPCGKPRP" label 1

Next: "RRIRHRPPRLPRPRPRPKMTPRP" label 0

Next: "RRIRDRPPRLPRPRPRPCWYPRP" label 0

###

# Test system: Escherichia coli TOP10
# METHOD NOTES: shrunken log2 fold change of peptide-encoding DNA abundance (4.5 h post-induction vs induction); higher = less antimicrobial activity (less host growth inhibition)
# CONDITION SUMMARY: time post-induction: 4.5 h; library: site-saturation at positions 5, 18, 19, 20
shrunken log2 fold change values, listed per item
# output: bare number, no unit

In the examples that follow, each entry is paired with its recorded shrunken log2 fold change.
What value of shrunken log2 fold change on Escherichia coli TOP10 does "RRIRSRPPRLPRPRPRPQPKPRP" have? 0.526

Next: "RRIRSRPPRLPRPRPRPKHGPRP" -0.22

Next: "RRIRYRPPRLPRPRPRPLLTPRP" -0.647

***
What value of shrunken log2 fold change on Escherichia coli TOP10 does "RRIRMRPPRLPRPRPRPTWQPRP" have? 0.288

Next: "RRIRVRPPRLPRPRPRPIGSPRP" -0.0343

Next: "RRIRRRPPRLPRPRPRPFSPPRP" -0.173

Next: "RRIRRRPPRLPRPRPRPPRIPRP" 1.08

Next: "RRIRFRPPRLPRPRPRPDFAPRP" 0.0852

Next: "RRIRDRPPRLPRPRPRPTGCPRP" 0.247

Next: "RRIRQRPPRLPRPRPRPTQVPRP" -0.0311

Next: "RRIRWRPPRLPRPRPRPFIVPRP" -0.325

Next: "RRIRYRPPRLPRPRPRPHAYPRP" -0.0226

Next: "RRIRCRPPRLPRPRPRPQCHPRP" 0.134

Next: "RRIRSRPPRLPRPRPRPYIHPRP" -0.737

Next: "RRIRQRPPRLPRPRPRPFEAPRP" -0.0497

Next: "RRIRHRPPRLPRPRPRPSKQPRP" -0.166

Next: "RRIRSRPPRLPRPRPRPMPFPRP" -0.0591

Next: "RRIRRRPPRLPRPRPRPNVLPRP" -0.185

Next: "RRIRIRPPRLPRPRPRPKYYPRP" -0.632

###

# System: Escherichia coli TOP10;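 also: peptides expressed intracellularly from a pBAD plasmid library in pooled LB shake-flask culture, induced with 0.3% L-arabinose, DNA abundance read by NGS, three biological replicates, DESeq2 with apeglm shrinkage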
# METHOD NOTES: shrunken log2 fold change of peptide-encoding DNA abundance (4.5 h post-induction vs induction); higher = less antimicrobial activity (less host growth inhibition)
# CONDITION SUMMARY: time post-induction: 4.5 h; library: site-saturation at positions 5, 18, 19, 20
VALUE KIND: shrunken log2 fold change
# output: bare number, no unit

In the examples that follow, each entry is paired with its recorded shrunken log2 fold change.
Returns the measured shrunken log2 fold change for the input sequence. Input: "RRIRSRPPRLPRPRPRPNIWPRP" -0.0665

Next: "RRIRFRPPRLPRPRPRPAWAPRP" 0.953

Next: "RRIRGRPPRLPRPRPRPEKLPRP" 0.844

***
Returns the measured shrunken log2 fold change for the input sequence. Input: "RRIRKRPPRLPRPRPRPMEFPRP" -0.00102

Next: "RRIRERPPRLPRPRPRPPNKPRP" -0.243

Source: the supplement of paper PMC9112550
